- MEASURED ON: human apelin receptor (Homo sapiens)
- Construct: expressed in transfected cells
- RUN DESCRIPTION: Determination of agonism on the human apelin receptor by a calcium fluorescence assay (FLIPR)
- Type: cell-based
- MEASUREMENT SETUP: HEK293 cells stably transfected with human apelin receptor and Giaq protein, Fluo-4 calcium fluorescence, read-out: EC50 (APJ agonism)
pEC50: −log10 of the molar value.
Label True when pEC50 is at or above 6; otherwise label False.

Lookup: Quick check, pEC50 >= 6? "CCC(CC)n1c(Cc2cccs2)nc2cc(C(=O)N[C@@H](CC(C)C)C(=O)NCCc3ccc(OC)cc3)ccc21"
Found: False

Lookup: Quick check, pEC50 >= 6? "CCC(CC)n1c(Cc2cccs2)nc2cc(C(=O)N[C@@H](CC(C)C)C(=O)Nc3ccc(N(CC)CC)cc3)ccc21"
Found: False

Lookup: Quick check, pEC50 >= 6? "CCC(CC)n1c(Cc2cccs2)nc2cc(C(=O)N[C@@H](Cc3ccc(Cl)c(Cl)c3)C(=O)O)ccc21"
Found: False

Lookup: Quick check, pEC50 >= 6? "CCC(CC)n1c(Cc2ccno2)nc2cc(C(=O)N[C@H](CC(=O)O)CC(C)C)ccc21"
Found: False

Lookup: Quick check, pEC50 >= 6? "CCC(CC)n1c(Cc2cccs2)nc2cc(C(=O)N[C@H](CC(=O)O)C(C)C)ccc21"
Found: False

Lookup: Quick check, pEC50 >= 6? "CCC(CC)n1c(Cc2cccs2)nc2cc(C(=O)N[C@H](Cc3nnn[nH]3)CC(C)C)ccc21"
Found: True

Lookup: Quick check, pEC50 >= 6? CCC(CC)n1c(Cc2cccs2)nc2cc(C(=O)N[C@@H](CC(C)C)C(=O)NCC3CCCCN3C)ccc21 (stereo partly shown)
Found: True

Lookup: Quick check, pEC50 >= 6? CCC(CC)n1c(Cc2cccs2)nc2cc(C(=O)NC3(C(=O)O)CCC(C)CC3)ccc21 (stereo not shown)
Found: True

Lookup: Quick check, pEC50 >= 6? CCC(C)n1c(Cc2ccsc2)nc2cc(C(=O)N[C@@H](CC(C)C)C(=O)O)ccc21 (stereo partly shown)
Found: False

Lookup: Quick check, pEC50 >= 6? C[C@@H]1CCCC[C@H]1n1c(Cc2cccs2)nc2cc(C(=O)NC(CC3CCC(C)(C)CC3)C(=O)O)ccc21 (single isomer, unassigned) [Example 446]
Found: False

Lookup: Quick check, pEC50 >= 6? C[C@@H]1CCCC[C@H]1n1c(Cc2cccs2)nc2cc(C(=O)NC(CC(=O)O)C3CCCCC3)ccc21 (single isomer, unassigned) [Example 463]
Found: False

Lookup: Quick check, pEC50 >= 6? "CCC(CC)n1c(Cc2cccs2)nc2cc(C(=O)N[C@@H](CC(C)C)C(=O)N[C@H]3C[C@@H]3c3ccccc3)ccc21"
Found: False

Lookup: Quick check, pEC50 >= 6? "CCC(CC)n1c(Cc2cccs2)nc2cc(C(=O)N[C@@H](CC(C)C)C(=O)NCC(C)(C)OC)ccc21"
Found: False

Lookup: Quick check, pEC50 >= 6? "CCC(CC)n1c(Cc2cccs2)nc2cc(C(=O)N[C@@H](Cc3ccc(Cl)cc3)C(=O)O)ccc21"
Found: False

Lookup: Quick check, pEC50 >= 6? C[C@@H]1CCCC[C@H]1n1c(Cc2cncs2)nc2cc(C(=O)NC(CC(=O)O)CC3CCCCC3)ccc21 (stereo partly shown)
Found: True

Lookup: Quick check, pEC50 >= 6? CCC(CC)n1c(Cc2cccs2)nc2cc(C(=O)N[C@@H](CC(C)C)C(=O)N3CC(C)OC(C)C3)ccc21 (stereo partly shown)
Found: False

Lookup: Quick check, pEC50 >= 6? "CCC(CC)n1c(Cc2cccs2)nc2cc(C(=O)N[C@@H](CC(C)C)C(=O)N3CCC[C@H]3COC)ccc21"
Found: False

Lookup: Quick check, pEC50 >= 6? CCC(CC)n1c(Cc2cccs2)nc2cc(C(=O)N[C@@H](CC(C)C)C(=O)NCC3CCCN(C)C3)ccc21 (stereo partly shown)
Found: True

Lookup: Quick check, pEC50 >= 6? "CCC(CC)n1c(Cc2cccs2)nc2cc(C(=O)N[C@@H](CC(C)C)C(=O)NCCS(N)(=O)=O)ccc21"
Found: True

Lookup: Quick check, pEC50 >= 6? "CCC(CC)n1c(Cc2cccs2)nc2cc(C(=O)N[C@@H](CC(C)C)C(=O)NCc3nnn[nH]3)ccc21"
Found: True

Lookup: Quick check, pEC50 >= 6? "CCC(CC)n1c(Cc2cccs2)nc2cc(C(=O)N[C@@H](CC(C)C)C(=O)NCc3ncco3)ccc21"
Found: True

====

Give EC50 for every item shown.
- MEASURED ON: human apelin receptor (Homo sapiens)
- Construct: expressed in transfected cells
- RUN DESCRIPTION: Determination of agonism on the human apelin receptor by a calcium fluorescence assay (FLIPR)
- Assay type: cell-based
- MEASUREMENT SETUP: EC50 (APJ agonism), HEK293 cells stably transfected with human apelin receptor and Giaq protein, Fluo-4 calcium fluorescence

Lookup: Provide only the value of recorded EC50 for CCCCC(CO)NC(=O)c1ccc2c(c1)nc(CC1CCCC1)n2C(CC)CC (centres unmarked) [Example 182]
Found: 11 µM

Lookup: Provide only the value of recorded EC50 for CCC(CC)n1c(Cc2cccs2)nc2cc(C(=O)N[C@H](CO)C(C)(C)C)ccc21 [Example 192]
Found: 14 µM

Lookup: Provide only the value of recorded EC50 for CCCC[C@@H](CO)NC(=O)c1ccc2c(c1)nc(CC1CCCC1)n2C(CC)CC [Example 184]
Found: 2.9 µM

Lookup: Provide only the value of recorded EC50 for CCC(CC)n1c(Cc2cccs2)nc2cc(C(=O)NC(CO)C(C)C)ccc21 (centres unmarked) [Example 189]
Found: 12.2 µM

Lookup: Provide only the value of recorded EC50 for CCC(CC)n1c(CC2CCCC2)nc2cc(C(=O)N[C@H](CO)CCSC)ccc21 [Example 178]
Found: 17.4 µM

Lookup: Provide only the value of recorded EC50 for CCC(CC)n1c(Cc2cccs2)nc2cc(C(=O)N[C@H](CO)C(C)C)ccc21 [Example 190]
Found: 6.28 µM

Lookup: Provide only the value of recorded EC50 for CCCC[C@H](CO)NC(=O)c1ccc2c(c1)nc(CC1CCCC1)n2C(CC)CC [Example 183]
Found: 26.3 µM

Lookup: Provide only the value of recorded EC50 for CCC(CC)n1c(Cc2cccs2)nc2cc(C(=O)N[C@H](COC)CC(C)C)ccc21 [Example 207]
Found: 0.554 µM

====

Give EC50 for every item shown.
- MEASURED ON: human apelin receptor (Homo sapiens, UniProt P35414)
- Construct: expressed in transfected cells
- Sequence (P35414 whole entry): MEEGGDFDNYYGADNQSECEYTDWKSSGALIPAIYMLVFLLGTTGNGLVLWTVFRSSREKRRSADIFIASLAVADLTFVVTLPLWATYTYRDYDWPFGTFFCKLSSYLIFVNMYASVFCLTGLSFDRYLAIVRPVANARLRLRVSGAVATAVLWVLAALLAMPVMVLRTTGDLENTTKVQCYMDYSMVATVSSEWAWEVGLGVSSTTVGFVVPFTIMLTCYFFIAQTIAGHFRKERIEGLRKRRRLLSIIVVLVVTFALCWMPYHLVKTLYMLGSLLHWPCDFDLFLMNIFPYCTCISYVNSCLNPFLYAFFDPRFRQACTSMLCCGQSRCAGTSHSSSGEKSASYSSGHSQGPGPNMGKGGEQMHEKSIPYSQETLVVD
- RUN DESCRIPTION: Determination of agonism on the human apelin receptor by a calcium fluorescence assay (FLIPR)
- Assay type: cell-based
- MEASUREMENT SETUP: HEK293 cells stably transfected with human apelin receptor and Giaq protein, Fluo-4 calcium fluorescence, read-out: EC50 (APJ agonism)
Enter your answer as a number in µM; do not include the unit.

Lookup: Provide only the value of recorded EC50 for CCC(CC)n1c(Cc2cccs2)nc2cc(C(=O)N[C@@H](CC(C)C)C(=O)NCCCN3CCN(c4ccc(OC)cc4)CC3)ccc21 [Example 279]
Found: 2.27

Lookup: Provide only the value of recorded EC50 for CCC(CC)n1c(Cc2cccs2)nc2cc(C(=O)N[C@@H](CC(C)C)C(=O)N3CC[C@H](OCc4ccccc4)C3)ccc21 [Example 390]
Found: 10.9

Lookup: Provide only the value of recorded EC50 for CC(C)C[C@H](NC(=O)c1ccc2c(c1)nc(Cc1cccs1)n2C1CCCC1C)C(=O)O (single isomer, unassigned) [Example 429]
Found: 0.891

Lookup: Provide only the value of recorded EC50 for CCC(CC)n1c(Cc2ccco2)nc2cc(C(=O)N[C@H](CC3CCCCC3)C(=O)O)ccc21 [Example 9]
Found: 0.585

Lookup: Provide only the value of recorded EC50 for CCC(CC)n1c(Cc2cccs2)nc2cc(C(=O)N[C@@H](CC(C)C)C(=O)NC3CCC3)ccc21 [Example 215]
Found: 1.45

Lookup: Provide only the value of recorded EC50 for CCC(CC)n1c(Cc2cccs2)nc2cc(C(=O)NC(CC(N)=O)CC(C)C)ccc21 (stereo not drawn) [Example 174]
Found: 0.301

Lookup: Provide only the value of recorded EC50 for CCC(CC)n1c(Cc2cccs2)nc2cc(C(=O)N[C@@H](CC(C)C)C(=O)NCCCN3CCCC(C)C3)ccc21 (stereo partly drawn) [Example 339]
Found: 0.444

Lookup: Provide only the value of recorded EC50 for CCC(CC)n1c(Cc2cccs2)nc2cc(C(=O)N[C@@H](CC(C)C)C(=O)NCC3CCN(CC(C)C)C3)ccc21 (stereo partly drawn) [Example 304]
Found: 0.461

Lookup: Provide only the value of recorded EC50 for CCC(CC)n1c(Cc2cccs2)nc2cc(C(=O)N[C@@H](CC(C)C)C(=O)N3CC4CC3CN4CC3CCCC3)ccc21 (stereo partly drawn) [Example 349]
Found: 3.04

Lookup: Provide only the value of recorded EC50 for CCOCCNC(=O)[C@H](CC(C)C)NC(=O)c1ccc2c(c1)nc(Cc1cccs1)n2C(CC)CC [Example 383]
Found: 2.12

Lookup: Provide only the value of recorded EC50 for CCC(CC)n1c(Cc2cccs2)nc2cc(C(=O)N[C@@H](CC(C)C)C(=O)NCC3COCCO3)ccc21 (stereo partly drawn) [Example 393]
Found: 1.36

Lookup: Provide only the value of recorded EC50 for CCC(CC)n1c(Cc2cccs2)nc2cc(C(=O)N[C@@H](CC(C)C)C(=O)N3CCC(N(C)CCN(C)C)CC3)ccc21 [Example 310]
Found: 0.162

Lookup: Provide only the value of recorded EC50 for CCC(CC)n1c(CC2CCCC2)nc2cc(C(=O)N[C@H](CO)CC(C)C)ccc21 [Example 175]
Found: 0.501

Lookup: Provide only the value of recorded EC50 for CCC(CC)n1c(Cc2cccs2)nc2cc(C(=O)NC(CC3CCCC3)C(=O)O)ccc21 (stereo not drawn) [Example 11]
Found: 0.065
